Where these numbers come from: patent US20070117743A1

System: IGROV-ET
procedure.text: SRB colorimetric assay of cell growth and viability, IGROV-ET
Type: cell-based, human
reported.conditions: 48 hours exposure, SRB; read-out: LC50 IGROV-ET
Where a SMILES comes first, the peptide text is derived from it. Bridges are numbered along the chain shown (N, C = ends). [ ]: non-standard residue; d: D form. The star is where a group is joined. d(aIle) = CC[C@H](C)[C@@H](N)C(=O)O; d(aThr) = C[C@@H](O)[C@@H](N)C(=O)O; Hexanoyl(5-Me) = CC(C)CCCC(=O)*; Orn = NCCC[C@H](N)C(=O)O; Aib = CC(C)(N)C(=O)O
quantity.measured: log10 of CC50 (log10 of the value in nM)

[
  {
    "compound": "C/C=C1\\NC(=O)[C@H](Cc2ccc(F)cc2)NC(=O)[C@@H](C(C)C)NC(=O)[C@@H]([C@@H](C)CC)NC(=O)[C@H](NC(=O)[C@H](NC(=O)[C@H](CCCN)NC(=O)[C@H]2CCCN2C(=O)[C@H](NC(=O)[C@@H](NC(=O)[C@@H](NC(=O)[C@H](NC(=O)CC[C@@H](C)CC)C(C)C)[C@@H](C)O)C(C)C)C(C)C)[C@@H](C)CC)[C@@H](C)OC(=O)[C@H](C(C)C)NC1=O [Compound 74, [Phe(4-F)^3, (4S)-MeHex^14]-KF]",
    "log10 of CC50": 2.68
  },
  {
    "compound": "C/C=C1\\NC(=O)[C@H](Cc2ccccc2)NC(=O)[C@@H](C(C)C)NC(=O)[C@@H]([C@@H](C)CC)NC(=O)[C@H](NC(=O)[C@H](NC(=O)[C@H](CCCC[N+](C)(C)C)NC(=O)[C@H]2CCCN2C(=O)[C@H](NC(=O)[C@@H](NC(=O)[C@@H](NC(=O)[C@H](NC(=O)CC[C@@H](C)CC)C(C)C)[C@@H](C)O)C(C)C)C(C)C)[C@@H](C)CC)[C@@H](C)OC(=O)[C@H](C(C)C)NC1=O [Compound 93, [N^ε(Me)3-Lys^8, (4S)-MeHex^14]-KF]",
    "log10 of CC50": 3.40
  },
  {
    "compound": "CC[C@H](C)[C@@H](NC(=O)[C@H](CCCN)NC(=O)[C@H]1CCCN1C(=O)[C@H](NC(=O)[C@@H](NC(=O)[C@@H](NC(=O)[C@H](NC(=O)CCCC(C)C)C(C)C)[C@@H](C)O)C(C)C)C(C)C)C(=O)N[C@H]1C(=O)N[C@H]([C@@H](C)CC)C(=O)N[C@H](C(C)C)C(=O)N[C@@H](Cc2ccccc2)C(=O)NC(C)(C)C(=O)N[C@@H](C(C)C)C(=O)O[C@@H]1C [Compound 66, [Aib^2]-KF] ({Hexanoyl(5-Me)}-[dV]TV[dV][dP][Orn][d(aIle)][d(aThr)][d(aIle)][dV]F[Aib]V; ester 8-C)",
    "log10 of CC50": 3.69
  },
  {
    "compound": "C/C=C1\\NC(=O)[C@H](Cc2ccc(I)cc2)NC(=O)[C@@H](C(C)C)NC(=O)[C@@H]([C@@H](C)CC)NC(=O)[C@H](NC(=O)[C@H](NC(=O)[C@H](CCCN)NC(=O)[C@H]2CCCN2C(=O)[C@H](NC(=O)[C@@H](NC(=O)[C@@H](NC(=O)[C@H](NC(=O)CC[C@@H](C)CC)C(C)C)[C@@H](C)O)C(C)C)C(C)C)[C@@H](C)CC)[C@@H](C)OC(=O)[C@H](C(C)C)NC1=O [Compound 72, [Phe(4-I)^3, (4S)-MeHex^14]-KF]",
    "log10 of CC50": 2.76
  },
  {
    "compound": "C/C=C1\\NC(=O)[C@H](Cc2c(F)c(F)c(F)c(F)c2F)NC(=O)[C@@H](C(C)C)NC(=O)[C@@H]([C@@H](C)CC)NC(=O)[C@H](NC(=O)[C@H](NC(=O)[C@H](CCCN)NC(=O)[C@H]2CCCN2C(=O)[C@H](NC(=O)[C@@H](NC(=O)[C@@H](NC(=O)[C@H](NC(=O)CC[C@@H](C)CC)C(C)C)[C@@H](C)O)C(C)C)C(C)C)[C@@H](C)CC)[C@@H](C)OC(=O)[C@H](C(C)C)NC1=O [Compound 71, [Phe(F5)^3, (4S)-MeHex^14]-KF]",
    "log10 of CC50": 2.93
  }
]

====

Test system: LoVo
procedure.text: SRB colorimetric assay of cell growth and viability, LoVo
Format: cell-based, human
reported.conditions: 48 hours exposure; read-out: LC50 LOVO
Where a SMILES comes first, the peptide text is derived from it. Bridges are numbered along the chain shown (N, C = ends). [ ]: non-standard residue; d: D form. The star is where a group is joined. d(aIle) = CC[C@H](C)[C@@H](N)C(=O)O; d(aThr) = C[C@@H](O)[C@@H](N)C(=O)O; Hexanoyl(5-Me) = CC(C)CCCC(=O)*; Orn = NCCC[C@H](N)C(=O)O; Dhb = C/C=C(\N)C(=O)O

[
  {
    "molecule": "C/C=C1\\NC(=O)[C@H](Cc2ccccc2)NC(=O)[C@@H](C(C)C)NC(=O)[C@@H]([C@@H](C)CC)NC(=O)[C@H](NC(=O)[C@H](NC(=O)[C@H](CCCN)NC(=O)[C@H]2CCCN2C(=O)[C@H](NC(=O)[C@H](CCCN)NC(=O)[C@@H](NC(=O)[C@H](NC(=O)CCCC(C)C)C(C)C)[C@@H](C)O)C(C)C)[C@@H](C)CC)[C@@H](C)OC(=O)[C@H](C(C)C)NC1=O [Compound 49, [Orn^11]-KF] ({Hexanoyl(5-Me)}-[dV]T[Orn][dV][dP][Orn][d(aIle)][d(aThr)][d(aIle)][dV]F[Dhb]V; ester 8-C)",
    "CC50 (µM)": 6.7
  }
]

====

Test system: SK-MEL-28
procedure.text: SRB colorimetric assay of cell growth and viability, SK-MEL-28
Type: cell-based, human
reported.conditions: MEL-28; 48 hours exposure; read-out: LC50 MEL-28
Where a SMILES comes first, the peptide text is derived from it. Bridges are numbered along the chain shown (N, C = ends). [ ]: non-standard residue; d: D form. The star is where a group is joined. Bip = N[C@@H](Cc1ccc(-c2ccccc2)cc1)C(=O)O; d(aIle) = CC[C@H](C)[C@@H](N)C(=O)O; d(aThr) = C[C@@H](O)[C@@H](N)C(=O)O; Hexanoyl(5-Me) = CC(C)CCCC(=O)*; Orn = NCCC[C@H](N)C(=O)O; Dhb = C/C=C(\N)C(=O)O
CC50 by entry:

[
  {
    "compound": "C/C=C1\\NC(=O)[C@H](Cc2ccc(-c3ccccc3)cc2)NC(=O)[C@@H](C(C)C)NC(=O)[C@@H]([C@@H](C)CC)NC(=O)[C@H](NC(=O)[C@H](NC(=O)[C@H](CCCN)NC(=O)[C@H]2CCCN2C(=O)[C@H](NC(=O)[C@@H](NC(=O)[C@@H](NC(=O)[C@H](NC(=O)CCCC(C)C)C(C)C)[C@@H](C)O)C(C)C)C(C)C)[C@@H](C)CC)[C@@H](C)OC(=O)[C@H](C(C)C)NC1=O [Compound 86, [Bip^3]-KF] ({Hexanoyl(5-Me)}-[dV]TV[dV][dP][Orn][d(aIle)][d(aThr)][d(aIle)][dV][Bip][Dhb]V; ester 8-C)",
    "value.unit": "µM",
    "CC50": 2.48
  },
  {
    "compound": "C/C=C1\\NC(=O)[C@H](Cc2ccccc2)NC(=O)[C@@H](C(C)C)NC(=O)[C@@H]([C@@H](C)CC)NC(=O)[C@H](NC(=O)[C@H](NC(=O)[C@H](CCCN)NC(=O)[C@H]2CCCN2C(=O)[C@H](NC(=O)[C@@H](NC(=O)[C@H](Cc2ccccc2)NC(=O)[C@H](NC(=O)CCCC(C)C)C(C)C)C(C)C)C(C)C)[C@@H](C)CC)[C@@H](C)OC(=O)[C@H](C(C)C)NC1=O [Compound 114, [Phe^12]-KF] ({Hexanoyl(5-Me)}-[dV]FV[dV][dP][Orn][d(aIle)][d(aThr)][d(aIle)][dV]F[Dhb]V; ester 8-C)",
    "value.unit": "µM",
    "CC50": 0.748
  }
]

====

System: IGROV-1
procedure.text: SRB colorimetric assay of cell growth and viability, IGROV-1
Format: cell-based, human
reported.conditions: IGROV; 48 hours exposure
Where a SMILES comes first, the peptide text is derived from it. Bridges are numbered along the chain shown (N, C = ends). [ ]: non-standard residue; d: D form. The star is where a group is joined. d(aIle) = CC[C@H](C)[C@@H](N)C(=O)O; d(aThr) = C[C@@H](O)[C@@H](N)C(=O)O; Hexanoyl(5-Me) = CC(C)CCCC(=O)*; Orn = NCCC[C@H](N)C(=O)O; Dhb = C/C=C(\N)C(=O)O

[
  {
    "molecule": "C/C=C1\\NC(=O)[C@H](Cc2ccccc2)NC(=O)[C@@H](C(C)C)NC(=O)[C@@H]([C@@H](C)CC)NC(=O)[C@H](NC(=O)[C@H](NC(=O)[C@H](CCCN)NC(=O)[C@H]2CCCN2C(=O)[C@H](NC(=O)[C@@H](NC(=O)[C@H](C)NC(=O)[C@H](NC(=O)CCCC(C)C)C(C)C)C(C)C)C(C)C)[C@@H](C)CC)[C@@H](C)OC(=O)[C@H](C(C)C)NC1=O [Compound 112, [Ala^12]-KF] ({Hexanoyl(5-Me)}-[dV]AV[dV][dP][Orn][d(aIle)][d(aThr)][d(aIle)][dV]F[Dhb]V; ester 8-C)",
    "value.unit": "Molar",
    "TGI IGROV": "3.09E−06"
  },
  {
    "molecule": "C/C=C1\\NC(=O)[C@H](Cc2ccc(F)c(F)c2)NC(=O)[C@@H](C(C)C)NC(=O)[C@@H]([C@@H](C)CC)NC(=O)[C@H](NC(=O)[C@H](NC(=O)[C@H](CCCN)NC(=O)[C@H]2CCCN2C(=O)[C@H](NC(=O)[C@@H](NC(=O)[C@@H](NC(=O)[C@H](NC(=O)CCCC(C)C)C(C)C)[C@@H](C)O)C(C)C)C(C)C)[C@@H](C)CC)[C@@H](C)OC(=O)[C@H](C(C)C)NC1=O [Compound 84, [Phe(3,4-F2)^3]-KF]",
    "value.unit": "Molar",
    "TGI IGROV": "9.40E−08"
  }
]
